Where do the numbers come from? From patent US20220259593A1.

- Test system: K562 CRISPRi cells
- test.description: Constant region variant library pooled growth screen, K562
- Format: cell-based, human
- condition.notes: sgRNA constant region variants; relative to the original, un-modified constant region cr995 (= 1)
assay.endpoint: Mean relative activity

Some entries whose results are on file:
cr113 (nucleic acid, listed as DNA, chemistry not fully specified) guide: GTTTAAGAGCTAAGCTGGAAACAGCATAGCAAGTTTAAATAAGGCTAGTCCGTTTTCAACTTGAAAAAGTGGCACCGAGTCGGTGCT :: 1.016
cr901 (nucleic acid, listed as DNA, chemistry not fully specified) guide: GTTTAAGAGCTAAGCTGGAAACAGCATAGCAAGTTTAAATAAGGCTAGTCCGTTATCAACTTGAAGAAGTGGCACCGAGTCGGTGCT :: 1.003
cr366 (nucleic acid, listed as DNA, chemistry not fully specified) guide: GTTTAAGAGCTAAGCTGGAAACAGCATAGCAAGTTTAAATAAGGCTAGTCCGTTATCAGCTTGAAAAAGCGGCACTGAGTCAGTGCT :: 1.017

API: the following record is the query input.
Query: For cr619 (nucleic acid, listed as DNA, chemistry not fully specified) guide: GTTTAAGAGCTAAGCTGGAAACAGCATAGCAAGTTTAAATAAGGCTAGTCCGTTATCAACTTGGAAAAGTGGCACCGAGTCGGTGCT , what is its reported Mean relative activity?
Result: 1.015
